- Protocol Details: physchem
- Condition Notes: 1-octanol/phosphate buffered saline, pH 7.4
Recorded Metric: logD

Molecule: COC(=O)N1Cc2cc(S(C)(=O)=O)ccc2C1C(=O)Nc1ccc(C(O)(C(F)(F)F)C(F)(F)F)cc1 (centres undefined)
logD: 2.9

Molecule: CCS(=O)(=O)c1ccc2c(c1)CN(C=O)C2C(=O)Nc1ccc(C(O)(C(F)(F)F)C(F)(F)F)cc1 (centres undefined)
logD: 2.9

Molecule: CC(=O)N1Cc2cc(S(C)(=O)=O)ccc2C1C(=O)Nc1ccc(C(O)(C(F)(F)F)C(F)(F)F)cc1 (racemic)
logD: 2.4

Molecule: CCS(=O)(=O)c1ccc(C(NC(=O)OC)C(=O)Nc2ccc(C(O)(C(F)(F)F)C(F)(F)F)cc2)nc1 (centres undefined)
logD: 2.9
